Cited source for all entries: patent US20230181580A1

ASSAYED_TARGET: CDK7/H (Homo sapiens, UniProt P50613)
Sequence (P50613 whole entry): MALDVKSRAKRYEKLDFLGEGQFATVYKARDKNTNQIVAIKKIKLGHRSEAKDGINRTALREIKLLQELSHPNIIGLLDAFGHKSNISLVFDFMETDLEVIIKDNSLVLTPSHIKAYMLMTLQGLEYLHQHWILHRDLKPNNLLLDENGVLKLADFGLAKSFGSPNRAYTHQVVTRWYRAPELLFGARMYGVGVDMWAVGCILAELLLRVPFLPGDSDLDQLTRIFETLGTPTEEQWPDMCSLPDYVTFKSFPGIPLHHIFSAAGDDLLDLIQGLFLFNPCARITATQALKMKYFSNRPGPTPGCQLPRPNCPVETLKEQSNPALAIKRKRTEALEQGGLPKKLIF
Sequence (P51946 whole entry partner): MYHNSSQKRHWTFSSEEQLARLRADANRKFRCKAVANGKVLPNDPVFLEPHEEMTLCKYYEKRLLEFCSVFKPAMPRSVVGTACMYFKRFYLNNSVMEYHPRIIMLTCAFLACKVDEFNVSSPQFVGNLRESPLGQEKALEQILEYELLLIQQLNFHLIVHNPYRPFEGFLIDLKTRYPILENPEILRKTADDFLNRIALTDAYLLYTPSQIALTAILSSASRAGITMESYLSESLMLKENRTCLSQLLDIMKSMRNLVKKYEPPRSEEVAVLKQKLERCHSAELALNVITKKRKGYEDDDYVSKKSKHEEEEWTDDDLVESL
Sequence (P51948 whole entry partner): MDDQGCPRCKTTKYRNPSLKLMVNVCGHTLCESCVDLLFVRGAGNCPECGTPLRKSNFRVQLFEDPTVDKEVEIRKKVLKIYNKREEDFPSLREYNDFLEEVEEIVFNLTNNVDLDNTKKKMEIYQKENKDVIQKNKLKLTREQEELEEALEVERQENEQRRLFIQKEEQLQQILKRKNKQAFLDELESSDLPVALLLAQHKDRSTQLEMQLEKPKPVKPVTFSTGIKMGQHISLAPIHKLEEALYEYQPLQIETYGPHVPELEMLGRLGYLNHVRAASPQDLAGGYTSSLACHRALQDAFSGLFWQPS
PROTOCOL_NOTES: CDK kinase inhibition assay (radiometric / ADP Glo)
MEASURED_ATTRIBUTE: Ki

Here's what some known entries look like.
>>> df
                            chemical_string                         assayed_target  measured_attribute     result
0  Cc1nc(NC2CCCC2)sc1-c1nc(Nc2ccc(N3CCOCC3)cn2)ncc1F  CDK7/H (Homo sapiens, UniProt P50613)                  Ki  > 1000 nM
1  Cc1nc(NC2CCCC2)sc1-c1ccnc(Nc2ccc(N3CCC(N)CC3)cn2)n1  CDK7/H (Homo sapiens, UniProt P50613)                  Ki     282 nM
2  Cc1nc(NC2CCCC2)sc1-c1ccnc(Nc2ccc(N3CCNCC3)cn2)n1  CDK7/H (Homo sapiens, UniProt P50613)                  Ki  > 1000 nM

The measured Ki associated with CNc1nc(C)c(-c2nc(Nc3ccc(N4CCC(N)CC4)cn3)ncc2F)s1 reads > 1000 nM

Field Ki (entry CCN1CCN(Cc2ccc(Nc3nccc(-c4sc(NC5CCCC5)nc4C)n3)nc2)CC1 ) reads 630 nM

Looking up CNc1nc(C)c(-c2nc(Nc3ccc(N4CCN(C(C)=O)CC4)cn3)ncc2C#N)s1 , I found its Ki recorded as > 1000 nM

For reference, reported Ki for CNc1nc(C)c(-c2nc(Nc3ccc(N4CCC(N(C)C)CC4)cn3)ncc2F)s1 stands at > 1000 nM

====

ASSAYED_TARGET: CDK9/T1 (Homo sapiens, UniProt P50750)
Sequence (P50750 whole entry): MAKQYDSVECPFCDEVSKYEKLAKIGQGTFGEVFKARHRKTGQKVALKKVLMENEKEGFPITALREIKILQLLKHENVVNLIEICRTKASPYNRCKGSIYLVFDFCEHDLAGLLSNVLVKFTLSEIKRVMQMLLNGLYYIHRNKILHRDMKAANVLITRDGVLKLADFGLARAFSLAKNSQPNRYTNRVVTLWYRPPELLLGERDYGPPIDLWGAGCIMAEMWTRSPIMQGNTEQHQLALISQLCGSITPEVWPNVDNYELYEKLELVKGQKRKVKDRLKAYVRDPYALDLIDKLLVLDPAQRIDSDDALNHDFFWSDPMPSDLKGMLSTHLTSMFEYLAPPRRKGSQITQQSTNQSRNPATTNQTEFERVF
Sequence (O60563 whole entry partner): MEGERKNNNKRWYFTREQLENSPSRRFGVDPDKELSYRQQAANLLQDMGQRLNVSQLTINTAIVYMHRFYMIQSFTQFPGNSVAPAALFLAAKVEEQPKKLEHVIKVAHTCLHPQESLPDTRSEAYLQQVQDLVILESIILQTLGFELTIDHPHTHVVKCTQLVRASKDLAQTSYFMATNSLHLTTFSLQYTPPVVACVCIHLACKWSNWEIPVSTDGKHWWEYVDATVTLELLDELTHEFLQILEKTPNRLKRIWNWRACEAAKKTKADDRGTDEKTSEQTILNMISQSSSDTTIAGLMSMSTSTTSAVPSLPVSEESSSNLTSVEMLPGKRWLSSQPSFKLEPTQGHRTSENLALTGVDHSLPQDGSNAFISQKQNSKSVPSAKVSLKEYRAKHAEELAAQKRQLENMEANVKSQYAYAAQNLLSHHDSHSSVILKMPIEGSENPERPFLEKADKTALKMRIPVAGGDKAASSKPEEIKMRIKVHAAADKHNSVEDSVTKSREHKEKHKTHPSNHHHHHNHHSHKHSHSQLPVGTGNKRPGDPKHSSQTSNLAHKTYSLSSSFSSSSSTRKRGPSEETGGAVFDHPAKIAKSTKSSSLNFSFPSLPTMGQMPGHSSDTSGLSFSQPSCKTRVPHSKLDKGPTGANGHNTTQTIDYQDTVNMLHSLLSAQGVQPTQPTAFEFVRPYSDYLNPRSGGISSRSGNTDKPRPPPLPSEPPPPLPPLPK
PROTOCOL_NOTES: CDK kinase inhibition assay (radiometric / ADP Glo)
pKi: −log10 of the molar value.
pKi by entry:

Use these answered entries as a reference point.
>>> df
                                   compound  result
0  CCN1CCN(c2ccc(Nc3nccc(-c4sc(NC5CCCC5)nc4C)n3)nc2)CC1 [Compound 4]    6.85
1  CNc1nc(C)c(-c2nc(Nc3ccc(N4CCC(N)CC4)cn3)ncc2F)s1 [Compound 7]  < 6.00
2  Cc1nc(NC2CCCC2)sc1-c1ccnc(Nc2ccc(N3CCNCC3)cn2)n1 [Compound 3]    6.66
3  CCN1CCN(Cc2ccc(Nc3nccc(-c4sc(NC5CCCC5)nc4C)n3)nc2)CC1 [Compound 6]  < 6.00
4  CNc1nc(C)c(-c2nc(Nc3ccc(N4CCC(N(C)C)CC4)cn3)ncc2F)s1 [Compound 1]  < 6.00
5  CNc1nc(C)c(-c2nc(Nc3ccc(N4CCN(C(C)=O)CC4)cn3)ncc2C#N)s1 [Compound 5]  < 6.00
6  Cc1nc(NC2CCCC2)sc1-c1nc(Nc2ccc(N3CCOCC3)cn2)ncc1F [Compound 9]  < 6.00
7  Cc1nc(NC2CCCC2)sc1-c1ccnc(Nc2ccc(N3CCC(N)CC3)cn2)n1 [Compound 8]    6.29

Consider the record given below.
get_value(item= CCN1CCN(Cc2ccc(Nc3ncc(F)c(-c4sc(NC5CCCC5)nc4C)n3)nc2)CC1 [Compound 2] , readout=pKi) returns < 6.00
